# Tested on: rice (Oryza sativa L.), ORYSA
# assay remarks: Test Example 2 post-emergence (foliage treatment) herbicidal activity, ORYSA
# Format: in vivo
# condition notes: 63 g a.i./ha
Response key: 1 (yes) means growth controlling degree, ORYSA >= 60%; 0 (no) means growth controlling degree, ORYSA < 60%.

Worked cases, answers included:
> print(dat)
                                   molecule    group
1  COc1c(Cl)cc(F)c(-c2nn(C)c(OC(F)F)c2Cl)c1NC(=O)c1ccccc1C(F)(F)F  1 (yes)
2  COc1c(Cl)cc(F)c(-c2nn(C)c(OC(F)F)c2Cl)c1NC(=O)COCc1ccccc1  1 (yes)

Inquiry: Please check the record CCOC(=O)C(C)Nc1c(OC)c(Cl)cc(F)c1-c1nn(C)c(OC(F)F)c1Cl (stereo not shown) and state if its growth controlling degree, ORYSA is at or above 60%.
Reply text: 1 (yes)

Inquiry: Please check the record `COc1c(Cl)cc(F)c(-c2nn(C)c(OC(F)F)c2Cl)c1NC(=O)OCc1ccccc1` and state if its growth controlling degree, ORYSA is at or above 60%.
Reply text: 1 (yes)

* * *

# System: rice (Oryza sativa L.), ORYSA
# assay remarks: Test Example 2 post-emergence (foliage treatment) herbicidal activity, ORYSA
# Format: in vivo
# condition notes: 63 g a.i./ha
Listing: growth controlling degree, ORYSA of selected compounds
Give the value, in units of %, as a plain number.

> print(dat)
                                   compound                parameter.measured  unit.info  observed.value
1  COc1c(Cl)cc(F)c(-c2nn(C)c(OC(F)F)c2Cl)c1NC(=O)C=Cc1ccccc1F [Compound 1-256]  growth controlling degree, ORYSA          %              80
2  COc1c(Cl)cc(F)c(-c2nn(C)c(OC(F)F)c2Cl)c1NC(=O)OCc1ccccn1 [Compound 1-69]  growth controlling degree, ORYSA          %              95
3  COc1c(Cl)cc(F)c(-c2nn(C)c(OC(F)F)c2Cl)c1NC(=O)/C=C/c1ccccc1 [Compound 1-31]  growth controlling degree, ORYSA          %              60
4  COc1c(Cl)cc(F)c(-c2nn(C)c(OC(F)F)c2Cl)c1NC(=O)C=Cc1c(Cl)cccc1Cl [Compound 1-252]  growth controlling degree, ORYSA          %              50
5  COc1c(Cl)cc(F)c(-c2nn(C)c(OC(F)F)c2Cl)c1NC(=O)C(C)(C)OC(C)=O [Compound 1-44]  growth controlling degree, ORYSA          %              50

Inquiry: Returns the measured growth controlling degree, ORYSA for the input compound. Input: COc1c(Cl)cc(F)c(-c2nn(C)c(OC(F)F)c2Cl)c1N(C=O)CC(=O)c1ccc(Cl)cc1 [Compound 1-13]
Reply text: 70

Inquiry: Returns the measured growth controlling degree, ORYSA for the input compound. Input: COc1ccc(COC(=O)Nc2c(OC)c(Cl)cc(F)c2-c2nn(C)c(OC(F)F)c2Cl)cc1 [Compound 1-56]
Reply text: 90

* * *

# Test system: rice (Oryza sativa L.), ORYSA
# assay remarks: Test Example 2 post-emergence (foliage treatment) herbicidal activity, ORYSA
# Type: in vivo
# condition notes: 63 g a.i./ha
Listing: growth controlling degree, ORYSA of selected molecules
Give the value, in units of %, as a plain number.

The examples below pair each entry with its known result.
> print(dat)
                                   molecule  observed.value
1  COCCOC(=O)Nc1c(OC)c(Cl)cc(F)c1-c1nn(C)c(OC(F)F)c1Cl              80
2  COc1c(Cl)cc(F)c(-c2nn(C)c(OC(F)F)c2Cl)c1NC(=O)C(C)c1ccccc1 (stereo not shown)              30
3  COc1c(Cl)cc(F)c(-c2nn(C)c(OC(F)F)c2Cl)c1NC(=O)OC(C)C              80

Proceed to the following item.
Inquiry: Returns the measured growth controlling degree, ORYSA for the input molecule. Input: `COc1c(Cl)cc(F)c(-c2nn(C)c(OC(F)F)c2Cl)c1NC(=O)C(C)=Cc1ccccc1`
Reply text: 10

* * *

# Test system: barnyardgrass (Echinochloa crus-galli L.): ECHCG
# assay remarks: Test Example 1 pre-emergence herbicidal activity, ECHCG
# Format: in vivo
# condition notes: Rate 63 g a.i./ha, visually observed 20th to 23rd day after application
parameter measured: Pre-emergence Herbicidal Activity ECHCG (growth controlling degree) (%)
Give the value, in units of %, as a plain number.

The examples below pair each entry with its known result.
> print(dat)
                                   compound  observed.value
1  COc1c(Cl)cc(F)c(-c2nn(C)c(OC(F)F)c2Cl)c1NC(=O)C=Cc1cccc(F)c1 [Compound 1-257]              30
2  COc1c(Cl)cc(F)c(-c2nn(C)c(OC(F)F)c2Cl)c1NC(=O)c1ccc(C)cc1 [Compound 1-261]              80
3  COc1c(Cl)cc(F)c(-c2nn(C)c(OC(F)F)c2Cl)c1NC(=O)COc1ccc(Cl)cc1 [Compound 1-35]              20

Inquiry: Enter reported Pre-emergence Herbicidal Activity ECHCG (growth controlling degree) observed with barnyardgrass (Echinochloa crus-galli L.): ECHCG for C#CCOC(=O)Nc1c(OC)c(Cl)cc(F)c1-c1nn(C)c(OC(F)F)c1Cl [Compound 1-74]
Reply text: 90

Inquiry: Enter reported Pre-emergence Herbicidal Activity ECHCG (growth controlling degree) observed with barnyardgrass (Echinochloa crus-galli L.): ECHCG for COc1c(Cl)cc(F)c(-c2nn(C)c(OC(F)F)c2Cl)c1NC(=O)C(C)(C)Oc1ccccc1 [Compound 1-38]
Reply text: 0

Inquiry: Enter reported Pre-emergence Herbicidal Activity ECHCG (growth controlling degree) observed with barnyardgrass (Echinochloa crus-galli L.): ECHCG for COc1c(Cl)cc(F)c(-c2nn(C)c(OC(F)F)c2Cl)c1NC(=O)C=Cc1cccc(C)c1 [Compound 1-254]
Reply text: 60

Inquiry: Enter reported Pre-emergence Herbicidal Activity ECHCG (growth controlling degree) observed with barnyardgrass (Echinochloa crus-galli L.): ECHCG for COc1c(Cl)cc(F)c(-c2nn(C)c(OC(F)F)c2Cl)c1NC(=O)C(C)Oc1ccccc1 (stereo not shown) [Compound 1-33]
Reply text: 30

Inquiry: Enter reported Pre-emergence Herbicidal Activity ECHCG (growth controlling degree) observed with barnyardgrass (Echinochloa crus-galli L.): ECHCG for COc1c(Cl)cc(F)c(-c2nn(C)c(OC(F)F)c2Cl)c1NC(=O)/C=C/c1ccccc1 [Compound 1-31]
Reply text: 80

Inquiry: Enter reported Pre-emergence Herbicidal Activity ECHCG (growth controlling degree) observed with barnyardgrass (Echinochloa crus-galli L.): ECHCG for COc1c(Cl)cc(F)c(-c2nn(C)c(OC(F)F)c2Cl)c1NC(=O)OCCCl [Compound 1-68]
Reply text: 95

Inquiry: Enter reported Pre-emergence Herbicidal Activity ECHCG (growth controlling degree) observed with barnyardgrass (Echinochloa crus-galli L.): ECHCG for C#CCNc1c(OC(F)F)c(Cl)cc(F)c1-c1nn(C)c(OC(F)F)c1Cl [Compound 1-87]
Reply text: 100

Inquiry: Enter reported Pre-emergence Herbicidal Activity ECHCG (growth controlling degree) observed with barnyardgrass (Echinochloa crus-galli L.): ECHCG for COc1c(Cl)cc(F)c(-c2nn(C)c(OC(F)F)c2Cl)c1NC(=O)C=Cc1ccccc1F [Compound 1-256]
Reply text: 60

* * *

# Test system: wheat (Triticum aestivum L.), TRZAX
# assay remarks: Test Example 2 post-emergence (foliage treatment) herbicidal activity, TRZAX
# Assay type: in vivo
# condition notes: 63 g a.i./ha
Listing: growth controlling degree, TRZAX of selected compounds
Give the value, in units of %, as a plain number.

Inquiry: Returns the measured growth controlling degree, TRZAX for the input compound. Input: `COc1ccc(C(=O)Nc2c(OC)c(Cl)cc(F)c2-c2nn(C)c(OC(F)F)c2Cl)cc1`
Reply text: 50

Inquiry: Returns the measured growth controlling degree, TRZAX for the input compound. Input: `COc1c(Cl)cc(F)c(-c2nn(C)c(OC(F)F)c2Cl)c1N(C)C=O`
Reply text: 30

Inquiry: Returns the measured growth controlling degree, TRZAX for the input compound. Input: `COc1c(Cl)cc(F)c(-c2nn(C)c(OC(F)F)c2Cl)c1N(C=O)C1CCCC1`
Reply text: 40

Inquiry: Returns the measured growth controlling degree, TRZAX for the input compound. Input: `COC(=O)CN(C=O)c1c(OC)c(Cl)cc(F)c1-c1nn(C)c(OC(F)F)c1Cl`
Reply text: 10

Inquiry: Returns the measured growth controlling degree, TRZAX for the input compound. Input: `COc1ccc(COC(=O)Nc2c(OC)c(Cl)cc(F)c2-c2nn(C)c(OC(F)F)c2Cl)cc1`
Reply text: 50

Inquiry: Returns the measured growth controlling degree, TRZAX for the input compound. Input: `Cn1nc(-c2c(F)cc(Cl)c(OC(F)F)c2NCc2ccccc2)c(Cl)c1OC(F)F`
Reply text: 30

Inquiry: Returns the measured growth controlling degree, TRZAX for the input compound. Input: `Cn1nc(-c2c(F)cc(Cl)c(OC(F)F)c2NC=O)c(Cl)c1OC(F)F`
Reply text: 60

Inquiry: Returns the measured growth controlling degree, TRZAX for the input compound. Input: `COc1c(Cl)cc(F)c(-c2nn(C)c(OC(F)F)c2Cl)c1N(C=O)CC(=O)c1ccc(Cl)cc1`
Reply text: 30

Inquiry: Returns the measured growth controlling degree, TRZAX for the input compound. Input: `COCCOC(=O)N(C(=O)OCCOC)c1c(OC)c(Cl)cc(F)c1-c1nn(C)c(OC(F)F)c1Cl`
Reply text: 30
